Recorded measurements of PBM binding z-score, one per entry
Test system: RARg homodimer (NR concentration 270 nM)
assay.text: PBM binding z-score (relative to random genomic background probes); higher = stronger binding; sequences stand for … in GC…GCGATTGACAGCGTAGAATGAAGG

sequence.chain	PBM binding z-score
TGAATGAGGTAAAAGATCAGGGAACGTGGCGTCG	0.294
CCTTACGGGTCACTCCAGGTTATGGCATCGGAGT	4.54
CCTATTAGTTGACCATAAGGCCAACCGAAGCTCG	0.942
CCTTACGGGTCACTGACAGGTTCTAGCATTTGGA	4.15
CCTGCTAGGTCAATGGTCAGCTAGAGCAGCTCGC	3.81
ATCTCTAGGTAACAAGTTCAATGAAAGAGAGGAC	1.8
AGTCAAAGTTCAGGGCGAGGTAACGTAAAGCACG	4.99
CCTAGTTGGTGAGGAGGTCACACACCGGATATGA	3.23
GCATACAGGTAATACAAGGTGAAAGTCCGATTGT	0.617
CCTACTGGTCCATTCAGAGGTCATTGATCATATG	2.62
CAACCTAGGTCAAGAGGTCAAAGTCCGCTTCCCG	7.78
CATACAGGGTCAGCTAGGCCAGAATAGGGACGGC	4.34
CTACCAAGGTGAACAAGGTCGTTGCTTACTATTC	1.34
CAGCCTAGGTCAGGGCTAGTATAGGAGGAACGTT	3.76
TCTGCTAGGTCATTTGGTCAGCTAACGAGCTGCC	4.17
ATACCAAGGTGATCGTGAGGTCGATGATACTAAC	1.22
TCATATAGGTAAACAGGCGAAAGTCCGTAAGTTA	-0.00353
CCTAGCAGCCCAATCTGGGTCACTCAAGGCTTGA	0.301
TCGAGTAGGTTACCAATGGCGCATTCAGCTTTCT	0.0712
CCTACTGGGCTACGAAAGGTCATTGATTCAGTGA	4.54
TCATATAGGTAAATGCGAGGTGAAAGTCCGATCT	0.538
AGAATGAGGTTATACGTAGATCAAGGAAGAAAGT	1.11
CGTAAAAGTTCAAGGTAACGTAACAGAAAGCAGC	5.27
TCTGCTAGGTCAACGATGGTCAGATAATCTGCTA	5.5
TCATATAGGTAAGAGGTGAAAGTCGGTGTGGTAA	0.66
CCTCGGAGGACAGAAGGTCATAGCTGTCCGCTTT	3.92

====

Tested on: PPARg:RXRa DBDmut IVT, anti-RXR (DBD mutation: RXRa K156A/R161A, NR concentration 270 nM, RXRa partner concentration 90 nM)
assay.text: PBM binding z-score (relative to random genomic background probes); higher = stronger binding; sequences stand for … in GC…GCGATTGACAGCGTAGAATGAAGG
Could you please classify the records by PBM binding z-score using these ranges: interval 1 (below 0.4), interval 2 (0.4 to below 3), interval 3 (3 or more)

sequence.chain	category
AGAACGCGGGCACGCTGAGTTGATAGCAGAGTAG	interval 1
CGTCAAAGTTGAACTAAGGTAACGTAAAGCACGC	interval 2
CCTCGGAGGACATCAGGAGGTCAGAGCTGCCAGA	interval 1
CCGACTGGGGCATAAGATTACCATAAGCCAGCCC	interval 3
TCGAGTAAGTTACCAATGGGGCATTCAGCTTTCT	interval 2
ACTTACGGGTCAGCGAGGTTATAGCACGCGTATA	interval 2
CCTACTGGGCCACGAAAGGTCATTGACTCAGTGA	interval 3
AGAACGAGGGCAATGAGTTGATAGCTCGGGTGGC	interval 3
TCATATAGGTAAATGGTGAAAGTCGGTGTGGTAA	interval 3
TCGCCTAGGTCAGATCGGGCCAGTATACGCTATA	interval 2
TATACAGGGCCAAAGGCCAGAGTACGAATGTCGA	interval 1
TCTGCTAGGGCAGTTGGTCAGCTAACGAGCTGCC	interval 2

====

System: PPARg:RXRa (NR concentration 180 nM, RXRa partner concentration 90 nM)
assay.text: PBM binding z-score (relative to random genomic background probes); higher = stronger binding; sequences stand for … in GC…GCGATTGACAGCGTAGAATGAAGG
Label scheme for PBM binding z-score: lower than 3 is N, 3 and above is Y.

sequence.chain	category
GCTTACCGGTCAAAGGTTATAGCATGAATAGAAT	Y
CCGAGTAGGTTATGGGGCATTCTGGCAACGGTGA	Y
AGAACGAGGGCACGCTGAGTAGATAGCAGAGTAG	N
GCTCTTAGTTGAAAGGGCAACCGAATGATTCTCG	N
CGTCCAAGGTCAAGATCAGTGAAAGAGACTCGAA	Y
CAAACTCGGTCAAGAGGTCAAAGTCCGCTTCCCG	Y

====

System: RARg homodimer (NR concentration 270 nM)
assay.text: PBM binding z-score (relative to random genomic background probes); higher = stronger binding; sequences stand for … in GC…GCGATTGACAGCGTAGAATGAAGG

sequence.chain	PBM binding z-score
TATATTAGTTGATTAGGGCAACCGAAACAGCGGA	1.19
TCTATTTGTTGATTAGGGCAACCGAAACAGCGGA	0.859
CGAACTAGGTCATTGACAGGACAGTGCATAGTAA	4.3
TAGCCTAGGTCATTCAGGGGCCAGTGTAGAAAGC	4.75
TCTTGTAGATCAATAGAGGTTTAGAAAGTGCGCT	-0.308
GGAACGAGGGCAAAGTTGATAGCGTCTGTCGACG	1.75

====

Test system: PXR homodimer (NR concentration 270 nM)
assay.text: PBM binding z-score (relative to random genomic background probes); higher = stronger binding; sequences stand for … in GC…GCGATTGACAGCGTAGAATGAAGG
measured.property: PBM binding z-score

sequence.chain	assay.result
CTCGAAAGGTCGTGCTCGGGTGAGTATACCAAAC	-0.25
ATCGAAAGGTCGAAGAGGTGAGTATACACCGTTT	0.5
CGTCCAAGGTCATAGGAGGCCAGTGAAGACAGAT	1.53
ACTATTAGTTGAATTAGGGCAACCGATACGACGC	0.205
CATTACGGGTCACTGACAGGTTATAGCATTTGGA	0.249
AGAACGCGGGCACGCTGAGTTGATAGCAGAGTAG	-0.289
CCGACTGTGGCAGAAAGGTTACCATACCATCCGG	-0.427
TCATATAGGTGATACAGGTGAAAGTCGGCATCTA	0.342
TGTCAAAGTTCAAAGGTAACGTATGTATCCACAC	3.95
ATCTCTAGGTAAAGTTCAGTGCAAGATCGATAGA	1.67
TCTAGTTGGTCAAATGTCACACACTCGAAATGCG	0.666
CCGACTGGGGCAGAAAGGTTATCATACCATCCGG	0.149
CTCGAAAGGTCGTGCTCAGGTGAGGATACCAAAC	0.182
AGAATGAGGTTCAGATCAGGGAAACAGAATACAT	0.222
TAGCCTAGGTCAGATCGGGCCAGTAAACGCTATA	-0.666
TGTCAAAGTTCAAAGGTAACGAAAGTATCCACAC	3.79
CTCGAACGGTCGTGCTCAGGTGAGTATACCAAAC	-0.32
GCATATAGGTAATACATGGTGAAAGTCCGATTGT	0.145
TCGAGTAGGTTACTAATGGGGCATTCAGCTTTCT	-0.441
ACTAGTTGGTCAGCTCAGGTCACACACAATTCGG	0.961
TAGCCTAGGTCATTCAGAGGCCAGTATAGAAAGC	-0.166
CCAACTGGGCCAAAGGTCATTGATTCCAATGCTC	1.49
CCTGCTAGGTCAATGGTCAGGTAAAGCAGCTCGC	-0.154
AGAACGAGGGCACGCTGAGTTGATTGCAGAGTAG	-0.0942
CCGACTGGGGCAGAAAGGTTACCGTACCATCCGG	-0.429
CGAACGAGGGCATGAGTTTATAGCAAATGCCGAT	1.18

====

In this section, each of the sequences is paired with its reported PBM binding z-score.
Test system: RARg:RXRa (NR concentration 270 nM, RXRa partner concentration 90 nM)
assay.text: PBM binding z-score (relative to random genomic background probes); higher = stronger binding; sequences stand for … in GC…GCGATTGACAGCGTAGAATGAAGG
measured.property: PBM binding z-score

sequence.chain	assay.result
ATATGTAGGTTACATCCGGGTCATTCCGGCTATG	3.56
ACTATTAGTTGGGACGAGGGCAACCGATAGGTTG	0.644
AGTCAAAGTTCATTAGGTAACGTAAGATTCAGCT	5.26
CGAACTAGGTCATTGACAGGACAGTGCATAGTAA	4.65
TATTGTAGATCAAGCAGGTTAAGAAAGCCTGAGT	0.285
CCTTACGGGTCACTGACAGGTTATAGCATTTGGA	6.19
ACAGACAGGCGATGAAGGTAACTCAGGCTATCAT	-0.163
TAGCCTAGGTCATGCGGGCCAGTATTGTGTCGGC	3.74
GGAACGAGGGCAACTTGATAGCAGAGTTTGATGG	1.7
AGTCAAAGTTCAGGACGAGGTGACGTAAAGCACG	5.69
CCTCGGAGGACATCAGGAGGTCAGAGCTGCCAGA	3.48
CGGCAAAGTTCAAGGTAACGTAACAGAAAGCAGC	5.32
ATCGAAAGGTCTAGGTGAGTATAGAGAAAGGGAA	1.23
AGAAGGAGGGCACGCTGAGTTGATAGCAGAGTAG	1.94
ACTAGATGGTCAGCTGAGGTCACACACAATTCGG	4.38
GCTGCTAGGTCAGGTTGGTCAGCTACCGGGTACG	2.17
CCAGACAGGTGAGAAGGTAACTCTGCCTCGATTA	0.418
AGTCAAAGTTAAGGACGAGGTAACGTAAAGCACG	0.647
